Value source: ChEMBL document CHEMBL1201862

Assignment: determine reported GI50 for the given molecules.
system: OVCAR-3; experiment: NCI tumour cell line growth inhibition, 48 h
Active and inactive are the calls of the source. Rule as the data show it: active = GI50 up to about 1.1 µM and inactive = higher.

Solved entries:
CSC1=C(C#N)C(=S)N=C(N)C1C(=O)Nc1ccc(C)cc1 (centres undefined)    > 100 µM (inactive)
COc1cc(C=O)cc(/C=N/n2c3ccccc3c3ccccc32)c1O    45.2 µM (inactive)
O=C1/C(=C\c2cccc(Oc3ccccc3)c2)S(=O)(=O)C(c2ccccc2)N1c1ccccc1Cl (centres undefined)    20.9 µM (inactive)
O=C1/C(=C/c2cccc3ccccc23)CCc2ccc([N+](=O)[O-])cc21    3.22 µM (inactive)
COC(=O)c1cc2c(nc1C)-c1ccccc1OS2(=O)=O    > 100 µM (inactive)

Required: GI50, one value per molecule below.
1. N=C(CSSCC(=N)NCC12CC3CC(CC(C3)C1)C2)NCC12CC3CC(CC(C3)C1)C2
2. Cc1ccc(S(=O)(=O)n2cc(C=O)c(-c3cn(S(=O)(=O)c4ccc(C)cc4)cc3-c3cn(S(=O)(=O)c4ccc(C)cc4)cc3C=O)c2)cc1
3. O=[N+]([O-])c1ccc(-c2csc3nc(-c4ccccc4)nn23)cc1
4. CCOC(=O)Cc1cc(OC)c(OC)cc1/C(Cl)=C(\C=O)c1ccc(OC)c(OC)c1

1. 16.1 µM (inactive)
2. 78.9 µM (inactive)
3. > 100 µM (inactive)
4. 13.8 µM (inactive)

====

tested on: CCRF-CEM; experiment: NCI tumour cell line growth inhibition, 48 h
Calls of active or inactive are those of the source. Rule as the data show it: active = GI50 up to about 1.1 µM and inactive = higher.
Your response should consist of one outcome taken from 1 = active, 0 = inactive

Example results:
Clc1ccccc1C(n1cc(Br)cn1)n1cc(Br)cn1    0
CCOC(=O)NC(Nc1ncccn1)(C(F)(F)F)C(F)(F)F    0
C=C1CC23CCC4C(C)(C(=O)O)CCCC4(C)C2CCC1C3 (stereo unspecified)    0

Recorded test call requested for Oc1cc(-c2ccc3ccccc3c2)nc2ncc(Cl)cc12
0

Recorded test call requested for Clc1ccccc1CN1COc2c(ccc3cccnc23)C1
1

Recorded test call requested for N=C1OC(c2cccc(Cl)c2)C(NNS(=O)(=O)c2ccccc2)=C1O (stereo unspecified)
0

====

tested on: 786-0; assay: NCI tumour cell line growth inhibition, 48 h
Active and inactive are the calls of the source. Rule as the data show it: active = GI50 up to about 1.1 µM and inactive = higher. Peptide text beside a SMILES is read from it. * marks the point of attachment. Boc = CC(C)(C)OC(=O)*; OtBu = CC(C)(C)O*
measured_endpoint: GI50

CC(C)(C)OC(=O)CC(NC(=O)OC(C)(C)C)C(=O)NC(Cc1ccccc1)C(N)=O (stereo not given) (Boc-Asp(OtBu)-Phe-NH2; configuration not given here)    > 100 µM (inactive)
N=C(NC(=S)N1CCCCC1)N1CCCCC1    > 100 µM (inactive)
Cc1cccnc1N/C=C1\C(=O)NC(=O)N(C)C1=O    > 100 µM (inactive)
O=C(N/C(=C\NC1=NCCS1)C(=O)N1CSC[C@@H]1C(=O)O)c1ccccc1    77.8 µM (inactive)

Continue with the next compound.
// returns reported GI50 for input O=C1c2cccc3cc([N+](=O)[O-])cc(c23)C(=O)N1NC1=NCCN1
> 100 µM (inactive)

====

tested on: OVCAR-3; assay: NCI tumour cell line growth inhibition, 48 h
Active and inactive are the calls of the source. No stated cut-off is given here; in the data, active = GI50 up to about 1.1 µM and inactive = higher.
Your response should consist of one outcome taken from active, inactive

Cc1cnc2nc(-c3cccc4ccccc34)cc(O)c2c1    active
CN(C)c1ccc(/C=C(\NC(=O)c2ccccc2)c2nn(C)c(=O)o2)cc1    inactive
O=[N+]([O-])C(=C(N1CCCCC1)N1CCCCC1)/C(Cl)=C(\Cl)[N+](=O)[O-]    inactive
C=C(C)CNC(=S)N(N)c1ccc2ccccc2c1    inactive

Moving on to another compound below.
Recorded test call requested for O=C1c2cccc3cc([N+](=O)[O-])cc(c23)C(=O)N1NC1=NCCN1
inactive
